The values you see were collected from BigSolDB 2.1.

# settings: in ethyl acetate, 293.5 K
measure: solubility (mole fraction)

{"structure-smiles": "O=C(Nc1c(F)c(F)c(F)c(F)c1F)C(=O)Nc1c(F)c(F)c(F)c(F)c1F", "measure": "solubility (mole fraction)", "value": 0.0116}

* * *

# settings: in 2-butanone, 323.9 K

{"structure-smiles": "O=C(Nc1c(F)c(F)c(F)c(F)c1F)C(=O)Nc1c(F)c(F)c(F)c(F)c1F", "solubility (mole fraction)": 0.0209}

* * *

# settings: in water, 303.3 K

{"structure-smiles": "NC(=O)c1c(F)c(F)c(F)c(F)c1F", "solubility (mole fraction)": 0.00034}

* * *

# settings: in ethyl acetate, 326.7 K

{"structure-smiles": "O=C(Nc1c(F)c(F)c(F)c(F)c1F)C(=O)Nc1c(F)c(F)c(F)c(F)c1F", "solubility (mole fraction)": 0.0251}

* * *

# settings: in ethyl acetate, 310.9 K

{"structure-smiles": "O=C(Nc1c(F)c(F)c(F)c(F)c1F)C(=O)Nc1c(F)c(F)c(F)c(F)c1F", "solubility (mole fraction)": 0.017}

* * *

# settings: in water, 312.6 K

{"structure-smiles": "O=c1[nH]c(=O)n([C@H]2C[C@H](O)[C@@H](CO)O2)cc1I", "solubility (mole fraction)": 0.00021}

* * *

# settings: in ethyl acetate, 281.1 K
measure: solubility (mole fraction)

{"structure-smiles": "O=C(Nc1c(F)c(F)c(F)c(F)c1F)C(=O)Nc1c(F)c(F)c(F)c(F)c1F", "measure": "solubility (mole fraction)", "value": 0.00822}

* * *

# settings: in ethyl acetate, 303.7 K

{"structure-smiles": "O=C(Nc1c(F)c(F)c(F)c(F)c1F)C(=O)Nc1c(F)c(F)c(F)c(F)c1F", "solubility (mole fraction)": 0.0138}

* * *

# settings: in 2-butanone, 333.4 K

{"structure-smiles": "O=C(Nc1c(F)c(F)c(F)c(F)c1F)C(=O)Nc1c(F)c(F)c(F)c(F)c1F", "solubility (mole fraction)": 0.0271}

* * *

# settings: in ethyl acetate, 291.9 K

{"structure-smiles": "O=C(Nc1c(F)c(F)c(F)c(F)c1F)C(=O)Nc1c(F)c(F)c(F)c(F)c1F", "solubility (mole fraction)": 0.0105}

* * *

# settings: in ethyl acetate, 334.9 K

{"structure-smiles": "O=C(Nc1c(F)c(F)c(F)c(F)c1F)C(=O)Nc1c(F)c(F)c(F)c(F)c1F", "solubility (mole fraction)": 0.0295}

* * *

# settings: in water, 326.2 K
measure: solubility (mole fraction)

{"structure-smiles": "O=c1[nH]c(=O)n([C@H]2C[C@H](O)[C@@H](CO)O2)cc1I", "value": 0.00041}

* * *

# settings: in water, 321.9 K

{"structure-smiles": "O=c1[nH]c(=O)n([C@H]2C[C@H](O)[C@@H](CO)O2)cc1I", "solubility (mole fraction)": 0.00039}

* * *

# settings: in 2-butanone, 284.2 K
measure: solubility (mole fraction)

{"structure-smiles": "O=C(Nc1c(F)c(F)c(F)c(F)c1F)C(=O)Nc1c(F)c(F)c(F)c(F)c1F", "value": 0.00793}

* * *

# settings: in water, 291.8 K
measure: solubility (mole fraction)

{"structure-smiles": "NC(=O)c1c(F)c(F)c(F)c(F)c1F", "value": 0.00018}
